The reported measurements were obtained from the Kinase Knowledgebase extract (Sharma et al. 2016).

# STUDY_SYSTEM: MAPK14 (human)
# PROTOCOL_TEXT: Inhibition of MAPK14 by Human Whole Blood Assay
# ASSAY_CONDITIONS: blood cells
pIC50: −log10 of the molar value.
Listed below: pIC50 values for each entry.
QUANTITY_NAME: pIC50

COMPOUND	STUDY_SYSTEM	QUANTITY_NAME	ENDPOINT_RESULT
CCN(C(=O)c1ccc2ccccc2c1)c1ccnc(N[C@@H](C)c2ccccc2)n1	MAPK14 (human)	pIC50	≥ 6.00
CC(Nc1cc(N(Cc2ccc(F)cc2)C(=O)c2ccc3ccccc3c2)ccn1)c1ccc(Cl)cc1 (stereo not given)	MAPK14 (human)	pIC50	≥ 6.00
CC(Nc1cc(N(Cc2ccc(F)cc2)C(=O)c2ccc3ccccc3c2)ccn1)c1ccc(F)cc1 (stereo not given)	MAPK14 (human)	pIC50	≥ 6.00
CC1CCCCC1Nc1nccc(N(CC2CCNCC2)C(=O)c2ccc3c(c2)CCO3)n1 (stereo not given)	MAPK14 (human)	pIC50	> 6.00
CCN(C(=O)c1cccc(C2CC2)c1)c1ccnc(N[C@@H](C)c2ccccc2)n1	MAPK14 (human)	pIC50	> 6.00
CCN(C(=O)c1cccc(C(Cl)Cl)c1)c1ccnc(N[C@@H](C)c2ccccc2)n1	MAPK14 (human)	pIC50	> 6.00
CC(C)Nc1nccc(N(Cc2ccc(F)cc2)C(=O)c2ccc3ccccc3c2)n1	MAPK14 (human)	pIC50	≥ 6.00
C[C@H](Nc1nccc(N(Cc2ccc(S(C)(=O)=O)cc2)C(=O)c2ccc3ccccc3c2)n1)c1ccccc1	MAPK14 (human)	pIC50	≥ 6.00
CC(C)Nc1nccc(N(CC2CCNCC2)C(=O)c2ccc3c(c2)CCO3)n1	MAPK14 (human)	pIC50	> 6.00
C[C@H](Nc1nccc(N(CC2CC2)C(=O)c2ccc3c(c2)CCO3)n1)c1ccccc1	MAPK14 (human)	pIC50	> 6.00
CCN(C(=O)c1ccc2ccccc2c1)c1ccnc(NC2CCNCC2)n1	MAPK14 (human)	pIC50	≥ 6.00
C[C@H](Nc1nccc(N(CC2CCNCC2)C(=O)c2ccc3c(c2)CCO3)n1)c1ccccc1	MAPK14 (human)	pIC50	> 6.00
CCN(C(=O)c1ccc2nccnc2c1)c1ccnc(N[C@@H](C)c2ccccc2)n1	MAPK14 (human)	pIC50	≥ 6.00
CC(C)Nc1nccc(N(CC2CC2)C(=O)c2ccc3ccccc3c2)n1	MAPK14 (human)	pIC50	> 6.00
C[C@H](Nc1cc(N(C)C(=O)N2CCc3ccccc3C2)ccn1)c1ccccc1	MAPK14 (human)	pIC50	≥ 6.00
CC(C)Nc1nccc(N(CCCCCN)C(=O)c2ccc3c(c2)CCO3)n1	MAPK14 (human)	pIC50	> 6.00
CCN(C(=O)c1cccc(Cl)c1C)c1ccnc(N[C@@H](C)c2ccccc2)n1	MAPK14 (human)	pIC50	> 6.00
O=C(c1ccc2ccccc2c1)N(Cc1ccc(F)cc1)c1ccnc(NC2CCN(Cc3ccccc3)CC2)c1	MAPK14 (human)	pIC50	≥ 6.00
CCN(C(=O)c1cccc2c1OCCO2)c1ccnc(N[C@@H](C)c2ccccc2)n1	MAPK14 (human)	pIC50	> 6.00
COCCCNc1nccc(N(CC2CCNCC2)C(=O)c2ccc3c(c2)CCO3)n1	MAPK14 (human)	pIC50	> 6.00

---

# STUDY_SYSTEM: MAPK14 (human) (UniProt Q16539)
# Sequence (Q16539 whole entry, looked up): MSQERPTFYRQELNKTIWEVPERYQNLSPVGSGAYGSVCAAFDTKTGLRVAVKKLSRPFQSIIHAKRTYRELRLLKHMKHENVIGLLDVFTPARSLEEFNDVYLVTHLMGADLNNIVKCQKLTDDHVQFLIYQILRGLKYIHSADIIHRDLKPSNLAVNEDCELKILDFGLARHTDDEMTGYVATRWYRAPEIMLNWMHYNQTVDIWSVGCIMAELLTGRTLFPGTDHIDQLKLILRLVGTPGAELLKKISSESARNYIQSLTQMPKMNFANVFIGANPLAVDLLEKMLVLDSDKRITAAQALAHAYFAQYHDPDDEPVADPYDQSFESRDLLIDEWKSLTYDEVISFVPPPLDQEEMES
# PROTOCOL_TEXT: Inhibition of MAPK14 by Human Whole Blood Assay
# ASSAY_CONDITIONS: blood cells
pIC50: −log10 of the molar value.

COMPOUND	pIC50
CCN(C(=O)c1ccc2c(c1)CCO2)c1ccnc(N[C@@H](C)c2ccccc2)n1	≥ 6.00
C[C@H](Nc1nccc(N(CC2CCNCC2)C(=O)c2cccc3ccccc23)n1)c1ccccc1	> 6.00
O=C(c1ccc2ccccc2c1)N(Cc1ccc(F)cc1)c1ccnc(NCCN2CCOCC2)c1	≥ 6.00
CC(C)N(C(=O)c1ccc2ccccc2c1)c1ccnc(N[C@@H](C)c2ccccc2)n1	≥ 6.00
CCC(COC)Nc1nccc(N(CC2CCNCC2)C(=O)c2ccc3c(c2)CCO3)n1 (configuration not stated)	> 6.00
CC(C)Nc1nccc(N(CC2CC[C@H](N)C2)C(=O)c2ccc3c(c2)CCO3)n1 (some centres not stated)	> 6.00
NCCCCN(C(=O)c1ccc2c(c1)CCO2)c1ccnc(NC2CCC(O)CC2)n1 (configuration not stated)	> 6.00
